Origin of the recorded values: patent US20230322761A1

Molecular target: BTK (Homo sapiens, UniProt Q06187)
Construct: endogenous in cells; host or cells: TMD-8 cells
Sequence (Q06187 whole entry): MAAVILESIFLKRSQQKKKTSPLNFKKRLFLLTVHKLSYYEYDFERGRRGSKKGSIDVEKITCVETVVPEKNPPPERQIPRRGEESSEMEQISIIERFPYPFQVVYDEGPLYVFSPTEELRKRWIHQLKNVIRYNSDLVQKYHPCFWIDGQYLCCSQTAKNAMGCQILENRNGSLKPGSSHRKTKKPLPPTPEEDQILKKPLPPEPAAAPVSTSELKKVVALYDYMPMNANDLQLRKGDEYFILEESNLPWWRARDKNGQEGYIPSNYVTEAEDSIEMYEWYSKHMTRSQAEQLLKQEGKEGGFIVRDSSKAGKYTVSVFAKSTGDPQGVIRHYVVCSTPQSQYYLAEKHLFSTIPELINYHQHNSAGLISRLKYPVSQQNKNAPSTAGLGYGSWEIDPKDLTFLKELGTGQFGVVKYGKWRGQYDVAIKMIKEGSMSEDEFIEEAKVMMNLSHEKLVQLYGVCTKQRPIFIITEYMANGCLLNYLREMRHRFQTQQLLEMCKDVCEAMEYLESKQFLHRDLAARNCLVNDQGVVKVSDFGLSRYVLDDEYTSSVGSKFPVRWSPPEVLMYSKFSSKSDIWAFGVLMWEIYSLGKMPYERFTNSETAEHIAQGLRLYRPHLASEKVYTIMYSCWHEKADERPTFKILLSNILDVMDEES
Assay: BTK degradation in TMD-8 cells, HTRF assay after 6 h treatment
Format: cell-based
Settings: IC50 (DC50) of BTK degradation
endpoint.label: DC50 (nM)

# molecule, endpoint.label, experimental.result
measured = [
    ("Cc1cc(-c2n[nH]c3ncc(-c4ccc(N5CCC(CN6CCN(c7ccc(N8CCC(=O)NC8=O)cn7)CC6)CC5)cc4)cc23)ccc1[C@@H](C)NC(=O)c1noc(C(C)(C)C)n1", "DC50", 2.7),
    ("Cc1cc(-c2n[nH]c3ncc(-c4ccc(N5CCN(CC(F)(F)c6ccc(C7CCC(=O)NC7=O)cn6)CC5)cc4)cc23)ccc1[C@@H](C)NC(=O)c1noc(C(C)(C)C)n1 (stereo partly drawn)", "DC50", 3.06),
]

###

Biological target: BTK (Homo sapiens, UniProt Q06187)
Construct: endogenous in cells; host or cells: TMD-8 cells
Assay: BTK degradation in TMD-8 cells, HTRF assay after 6 h treatment
Type: cell-based
Settings: IC50 (DC50) of BTK degradation
endpoint.label: DC50 (nM)

a. Cc1cc(-c2n[nH]c3ncc(-c4ccc(N5CCN(CC(F)(F)c6ccc(C7CCC(=O)NC7=O)cn6)CC5)cc4)cc23)ccc1[C@@H](C)NC(=O)c1nc(C(C)(C)C)no1 (some centres unmarked) [Example 192]
b. Cc1cc(-c2n[nH]c3ncc(-c4ccc(N5CCN(CC6CCN(c7ccc(N8CCC(=O)NC8=O)cc7)CC6)CC5)cc4)cc23)ccc1CNC(=O)c1csc(C(C)(C)C)n1 [Example 93]
Q: Hi team, can someone confirm which has the larger DC50: a or b ? Thanks. Use the label to indicate which entry you chose.
Ans: b

a. COc1cc(N2CCC(CN3CCN(c4ccc(-c5cnc6[nH]nc(-c7ccc(CNC(=O)c8noc(C(C)(C)C)n8)c(C)c7)c6c5)cc4)CC3)CC2)ccc1N1CCC(=O)NC1=O [Example 50]
b. Cc1cc(-c2n[nH]c3ncc(-c4ccc(CCN5CCC(c6ccc([C@H]7CCC(=O)NC7=O)cc6)CC5)cc4)cc23)ccc1CNC(=O)c1nc(C(C)(C)C)no1 [Example 89]
Q: Dear colleague, could you let me know whether a or b has the lower recorded DC50? Thanks. Use the label to indicate which entry you chose.
Ans: b

A. Cc1cc(-c2n[nH]c3ncc(-c4ccc(C5CCN(CCCOc6ccc(NC7CCC(=O)NC7=O)cc6)CC5)cc4)cc23)ccc1CNC(=O)c1noc(C(C)(C)C)n1 (centres unmarked) [Example 2]
B. Cc1cc(-c2n[nH]c3ncc(-c4ccc(N5CCN(CC6CCN(c7ccc(N8CCC(=O)NC8=O)cc7F)CC6)CC5)cc4)cc23)ccc1[C@@H](C)NC(=O)c1noc(C(C)(C)C)n1 [Example 134]
C. CC(C)(C)c1noc(C(=O)NCc2ccc(-c3n[nH]c4ncc(-c5ccc(C6CCN(CCc7ccc(C8CCC(=O)NC8=O)cc7)CC6)cc5)cc34)cc2F)n1 (centres unmarked) [Example 14]
D. COc1cc(N2CCC(CCN3CCC(c4ccc(-c5cnc6[nH]nc(-c7ccc(CNC(=O)c8nc(C(C)(C)C)no8)c(C)c7)c6c5)cc4)CC3)CC2)ccc1N1CCC(=O)NC1=O [Example 28]
Q: Sort the 4 molecules by DC50; largest first, smallest last. Would you mind listing the labels in the order requested?
Ans: B, C, D, A

1. Cc1cc(-c2n[nH]c3ncc(-c4ccc(N5CCN(CCn6nc(C)c(C7CCC(=O)NC7=O)c6C)CC5)cc4)cc23)ccc1[C@@H](C)NC(=O)c1nc(C(C)(C)C)no1 (some centres unmarked) [Example 196]
2. Cc1cc(-c2n[nH]c3ncc(-c4ccc(N5CCN(CC6CCN(c7ccc(N8CCC(=O)NC8=O)cc7)CC6)CC5)cc4)cc23)ccc1CNC(=O)c1cn(C(C)(C)C)nn1 [Example 31]
3. Cc1cc(-c2n[nH]c3ncc(-c4ccc(N5CCN(C6CCC(c7ccc(C8CCC(=O)NC8=O)c(F)c7)C6)CC5)cc4)cc23)ccc1[C@@H](C)NC(=O)c1nc(C(C)(C)C)no1 (some centres unmarked) [Example 216]
Q: Sort the 3 molecules by DC50; largest first, smallest last. Would you mind listing the labels in the order requested?
Ans: 2, 3, 1

A. Cc1cc(-c2n[nH]c3ncc(-c4ccc(C5CCN(CC6CCN(c7ccc(N8CCC(=O)NC8=O)cc7)CC6)CC5)cc4)cc23)ccc1CNC(=O)c1noc(C(C)(C)C)n1 [Example 1]
B. Cc1c([C@@H](C)NC(=O)c2nc(C(C)(C)C)no2)ccc(-c2n[nH]c3ncc(-c4ccc(N5CCN(CC6CCN(c7ccc(N8CCC(=O)NC8=O)cc7)CC6)CC5)cc4)cc23)c1F [Example 45]
C. Cc1cc(N2CCC(CCN3CCN(c4ccc(-c5cnc6[nH]nc(-c7ccc([C@@H](C)NC(=O)c8noc(C(C)(C)C)n8)c(C)c7)c6c5)cc4)CC3)CC2)ccc1C1CCC(=O)NC1=O (some centres unmarked) [Example 168]
D. Cc1cc(N2CCC(CN3CCN(c4ccc(-c5cnc6[nH]nc(-c7cc(CO)c([C@@H](C)NC(=O)c8nc(C(C)(C)C)no8)cc7F)c6c5)cc4)CC3)CC2)ccc1N1CCC(=O)NC1=O [Example 190]
Q: // smallest DC50 at index 0, largest at the end Would you mind listing the labels in the order requested?
Ans: A, B, D, C
(A: 0.978 nM, B: 2.15 nM, D: 6.11 nM, C: 15.6 nM)

A. Cc1cc(-c2n[nH]c3ncc(-c4ccc(N5CCN(CC6CCN(c7ccc(N8CCC(=O)NC8=O)cc7)CC6)CC5)cc4)cc23)c(F)cc1[C@@H](C)NC(=O)c1noc(C(C)(C)C)n1 [Example 44]
B. Cc1cc(-c2n[nH]c3ncc(-c4ccc(N5CCN(CC6CCN(c7ccc(N8CCC(=O)NC8=O)c(C)c7)CC6)CC5)cn4)cc23)ccc1[C@@H](C)NC(=O)c1noc(C(C)(C)C)n1 [Example 78]
C. Cc1cc(-c2n[nH]c3ncc(-c4ccc(N5CCN(CCc6ccc([C@@H]7CCC(=O)NC7=O)cc6)CC5)cc4)cc23)ccc1CNC(=O)c1cn(C(C)(C)C)nn1 [Example 151]
Q: Sort the 3 molecules by DC50; largest first, smallest last. Would you mind listing the labels in the order requested?
Ans: C, A, B
(C: 17.8 nM, A: 6.02 nM, B: 1.75 nM)
